Multiple publications report pIC50 for Xanthine dehydrogenase/oxidase (Homo sapiens); what follows is a combined list.
pIC50: −log10 of the molar value.

Solved entries:
| Smiles data | Property name | Result |
| --- | --- | --- |
| Nc1ncc2[nH]cnc2n1 | pIC50 | < 3.70 |
| O=C(/C=C/c1ccc(O)cc1)OC[C@@H]1O[C@H](Oc2ccc(-c3cc(=O)c4c(O)cc(O)cc4o3)cc2)[C@@H](O)[C@H](O)[C@H]1O | pIC50 | < 4.00 |
| O=c1c(O[C@@H]2O[C@H](CO)[C@@H](O)[C@H](O)[C@H]2O)c(-c2ccc(O)c(O)c2)oc2cc(O)cc(O)c12 | pIC50 | 5.80 |

Inquiry: Give pIC50 only, for `N#Cc1cn(C2CCCC2)c2cc(NC(=O)c3cc(=O)[nH]cn3)ccc12` , using Xanthine dehydrogenase/oxidase (Homo sapiens) data.
Reply text: < 5.00

----------
Multiple publications report log10(IC50) for Xanthine dehydrogenase/oxidase (Homo sapiens, UniProt P47989); what follows is a combined list.
All values: log10 IC50 [µM].

| Smiles data | log10(IC50) |
| --- | --- |
| O=[N+]([O-])c1ccc2[nH]cnc2c1 | 1.94 |

Inquiry: Provide measured log10(IC50) value, entry: `CN1CCN(CCCOc2ccc3c(=O)c4ccccc4oc3c2)CC1`
Reply text: 1.67

Inquiry: Provide measured log10(IC50) value, entry: `Cn1cc2c3c1C(=O)C(NCCc1ccc(O)cc1)=CC3=[N+](C)CC2.[Cl-]`
Reply text: 1.22

Inquiry: Provide measured log10(IC50) value, entry: `O=c1c2ccccc2oc2cc(OCCCN3CCCC3)ccc12`
Reply text: 1.82

----------
Multiple publications report IC50 for Xanthine dehydrogenase/oxidase (Homo sapiens); what follows is a combined list.
Write the number in µM without appending the unit.

Solved entries:
| Smiles data | U | IC50 |
| --- | --- | --- |
| Cc1nc(-c2ccc(OCC(C)C)c(C#N)c2)sc1C(=O)O | µM | 0.03 |
| COc1cc(/C=C2\CCC/C(=C\c3cccc(Br)c3)C2=O)cc(OC)c1 | µM | 0.0189 |

For the next question, use this molecule.
Inquiry: Give IC50 only, for `O=C(O)/C=C/c1ccccc1` , using Xanthine dehydrogenase/oxidase (Homo sapiens) data.
Reply text: 178

----------
Multiple publications report pIC50 for Xanthine dehydrogenase/oxidase (Homo sapiens, UniProt P47989); what follows is a combined list.
pIC50: −log10 of the molar value.
# cutoff 5 applies to pIC50; >= gives MET, < gives NOT MET

Inquiry: Please tell me: is the compound `N#Cc1ccc(-n2ncc(C#N)c2N)cc1` at or over 5 in terms of pIC50?
Reply text: NOT MET

Inquiry: Please tell me: is the compound `O=C/C=C/c1ccc(O)c(O)c1` at or over 5 in terms of pIC50?
Reply text: NOT MET

Inquiry: Please tell me: is the compound `CCC[C@H](O)C[C@@H]1Cc2cc(OC)c(O)c(O)c2C(=O)O1` at or over 5 in terms of pIC50?
Reply text: NOT MET

Inquiry: Please tell me: is the compound `O=c1c2ccc(O)cc2oc2cc(OCCCN3CCNCC3)ccc12` at or over 5 in terms of pIC50?
Reply text: NOT MET

Inquiry: Please tell me: is the compound `Cn1c(N)nc(-c2ccccc2)cc1=O` at or over 5 in terms of pIC50?
Reply text: NOT MET

Inquiry: Please tell me: is the compound `N#Cc1cnn(-c2ccc(C(F)(F)F)cc2)c1N` at or over 5 in terms of pIC50?
Reply text: NOT MET

Inquiry: Please tell me: is the compound `N#Cc1ccc(COc2cc(O)cc3oc4cc(O)c(O)cc4c(=O)c23)cc1` at or over 5 in terms of pIC50?
Reply text: NOT MET

Inquiry: Please tell me: is the compound `C/C(=N\NS(=O)(=O)c1ccc([N+](=O)[O-])cc1)c1nc2ccccc2o1` at or over 5 in terms of pIC50?
Reply text: NOT MET

Inquiry: Please tell me: is the compound `CCOc1ccc(-c2ccc(-c3nnn[nH]3)cc2)cc1` at or over 5 in terms of pIC50?
Reply text: MET

Inquiry: Please tell me: is the compound `COc1ccc(C/C(=N\O)c2nc3ccc(OC)cc3o2)cc1` at or over 5 in terms of pIC50?
Reply text: MET

Inquiry: Please tell me: is the compound CCC(C)C(=O)C1=C(O)[C@@](C)(CC=C(C)C)C(=O)[C@@]2(C[C@H]3[C@H](CC[C@@]3(C)O)[C@](C)(O)C2)C1=O (stereo partly specified) at or over 5 in terms of pIC50?
Reply text: NOT MET

Inquiry: Please tell me: is the compound `CC(=O)OC[C@H]1O[C@@H](Nc2ncnc3c2cnn3-c2ccc(C(=O)O)cc2)[C@H](OC(C)=O)[C@@H](OC(C)=O)[C@@H]1OC(C)=O` at or over 5 in terms of pIC50?
Reply text: NOT MET
